Target or test system: T1, human ErbB3-Fc (R&D Systems) (human, UniProt P21860 20-643)
T1 construct: Bought protein; also called wild-type ErbB3-Fc fusion; immobilized ErbB3; not shown: Fc part of the bought fusion protein; not described
Assay: ELISA on ErbB3-Fc, soluble monovalent Sab (Example 42)
Below, each of the binders is paired with its reported EC50 value.
Answer with a number only, understood to be in nM.

Any idea what its EC50 is? The binder is 2995-D08 (other) VH: EVQLLESGGGLVQPGGSLRLSCAASGFTFSDYWMHWVRQAPGKGLEWVAAISWGGSYTYYADSVKGRFTISRDNSKNTLYLQMNSLRAEDTAVYYCAKDNFILLNSWFDYWGQGTLVTVSS light: QPVLHQPPAMSSALGTTIRLTCTLRNDHDIGVYSVYWYQQRPGHPPRFLLRYFSQSDKSQGPQVPPRFSGSKDVARNRGYLSISELQPEDEAMYYCAMGARSSVTHVFGSGTQLTVLSQPKATPSVTLFPPSSEELQANKATLVCLMNDFYPGILTVTWKADGTPITQGVEMTTPSKQSNNKYAASSYLSLTPEQWRSRRSYSCQVMHEGSTVEKTVAPAECS
0.052

Any idea what its EC50 is? The binder is 2995-F08 (other) VH: EVQLLESGGGLVQPGGSLRLSCAASGFTFSSYWMHWVRQAPGKGLEWVSGISNNGRYKYYADSVKGRFTISRDNSKNTLYLQMNSLRAEDTAVYYCAKDNFILLNSWFDYWGQGTLVTVSS light: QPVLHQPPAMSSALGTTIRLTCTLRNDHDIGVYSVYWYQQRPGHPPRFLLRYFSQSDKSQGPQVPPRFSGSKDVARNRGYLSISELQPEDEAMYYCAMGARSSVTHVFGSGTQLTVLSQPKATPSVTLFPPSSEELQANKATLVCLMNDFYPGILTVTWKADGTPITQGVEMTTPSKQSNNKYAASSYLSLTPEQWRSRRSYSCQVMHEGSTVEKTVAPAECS
0.059

Measured values drawn from patent US20140308287A1 for this set.
